molecular target: ATP-dependent translocase ABCB1 (Homo sapiens, UniProt P08183); test: TP_TRANSPORTER: transepithelial transport in MDR1-expressing LLC-PK1 cells; format: functional, cell-based; conditions: pig
Sequence (P08183 whole entry): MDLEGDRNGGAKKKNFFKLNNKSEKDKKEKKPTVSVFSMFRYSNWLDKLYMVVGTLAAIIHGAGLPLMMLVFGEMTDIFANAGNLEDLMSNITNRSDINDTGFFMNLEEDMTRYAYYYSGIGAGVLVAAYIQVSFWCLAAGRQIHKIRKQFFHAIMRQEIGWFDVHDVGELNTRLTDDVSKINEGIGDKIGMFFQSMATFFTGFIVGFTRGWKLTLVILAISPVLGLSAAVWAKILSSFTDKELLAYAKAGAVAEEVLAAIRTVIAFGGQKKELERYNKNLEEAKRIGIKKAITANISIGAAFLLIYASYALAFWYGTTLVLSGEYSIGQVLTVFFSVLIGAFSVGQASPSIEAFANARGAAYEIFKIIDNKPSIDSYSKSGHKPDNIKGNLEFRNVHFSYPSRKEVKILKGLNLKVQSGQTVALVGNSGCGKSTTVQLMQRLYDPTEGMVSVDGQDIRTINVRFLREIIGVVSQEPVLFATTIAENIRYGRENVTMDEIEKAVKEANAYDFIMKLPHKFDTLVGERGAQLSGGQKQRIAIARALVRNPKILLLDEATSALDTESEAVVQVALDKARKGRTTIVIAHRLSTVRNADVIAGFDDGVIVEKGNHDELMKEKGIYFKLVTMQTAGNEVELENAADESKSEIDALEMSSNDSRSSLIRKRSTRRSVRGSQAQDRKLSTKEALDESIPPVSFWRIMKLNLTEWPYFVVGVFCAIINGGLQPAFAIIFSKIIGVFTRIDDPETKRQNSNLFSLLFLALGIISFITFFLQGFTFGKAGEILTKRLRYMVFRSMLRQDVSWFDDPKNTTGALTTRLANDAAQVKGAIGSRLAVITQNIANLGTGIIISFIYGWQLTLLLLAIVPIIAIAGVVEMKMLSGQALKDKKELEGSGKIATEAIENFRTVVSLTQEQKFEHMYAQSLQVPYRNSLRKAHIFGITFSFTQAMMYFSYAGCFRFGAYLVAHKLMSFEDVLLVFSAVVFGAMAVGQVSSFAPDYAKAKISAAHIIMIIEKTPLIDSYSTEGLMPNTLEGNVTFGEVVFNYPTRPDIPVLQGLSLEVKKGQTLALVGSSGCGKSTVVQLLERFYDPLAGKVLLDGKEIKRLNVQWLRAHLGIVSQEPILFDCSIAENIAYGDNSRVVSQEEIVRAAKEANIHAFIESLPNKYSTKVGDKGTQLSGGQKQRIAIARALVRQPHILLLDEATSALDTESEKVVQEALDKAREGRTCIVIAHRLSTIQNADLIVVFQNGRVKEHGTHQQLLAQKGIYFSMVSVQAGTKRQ
measurement.name: Activity

1. C[C@]12C=CC(=O)C=C1CC[C@@H]1[C@@H]2[C@@H](O)C[C@@]2(C)[C@H]1CC[C@]2(O)C(=O)CO [PREDNISOLONE] :: substrate [+]
2. C[C@]12CCC(=O)C=C1[C@@H](O)C[C@@H]1[C@@H]2[C@@H](O)C[C@@]2(C)[C@H]1CC[C@]2(O)C(=O)CO :: substrate [+]
3. C[C@]12CCC(=O)C=C1CC[C@@H]1[C@@H]2[C@@H](O)C[C@@]2(C)[C@H]1CC[C@]2(O)C(=O)CO [HYDROCORTISONE] :: substrate [+]
